List of IC50 tested on MAPK14 (human).
Answer format: numeric, nM implied, no suffix.

Recorded results for 3 compounds are shown here.
sample_smiles=CC(C)n1c(N2CC[C@@H](N)C2)nc(OCc2ccc(F)cc2F)c(Cl)c1=O result_type=IC50 quantitative_result=497
sample_smiles=CC(=O)NCCOc1nc(OCc2ccc(F)cc2F)c(Br)c(=O)n1C(C)C result_type=IC50 quantitative_result=51
sample_smiles=CC(C)n1c(CCCC(N)=O)nc(OCc2ccc(F)cc2F)c(Br)c1=O result_type=IC50 quantitative_result=391

What does the data say about its IC50? Entry: CC(C)n1c(CCCCO)nc(OCc2ccc(F)cc2F)c(Cl)c1=O
181

What does the data say about its IC50? Entry: Cn1c(NCC(N)=O)nc(OCc2ccc(F)cc2F)c(Br)c1=O
954

Value source: the Kinase Knowledgebase extract (Sharma et al. 2016)
